System: Escherichia coli
assayMethodText: Growth of the isolate in antibiotic mediums, sample 5
Type: cell-based
reportedConditions: microorganism isolated in sample 5 (Escherichia coli); grown in antibiotic medium

[
  {
    "molecule": "NCC[C@H](O)C(=O)N[C@@H]1C[C@H](N)[C@@H](O[C@H]2O[C@H](CN)[C@@H](O)[C@H](O)[C@H]2O)[C@H](O)[C@H]1O[C@H]1O[C@H](CO)[C@@H](O)[C@H](N)[C@H]1O [Amikacin]",
    "Result": "Not resistant"
  },
  {
    "molecule": "O=C(O)c1cn(C2CC2)c2cc(N3CCNCC3)c(F)cc2c1=O [Ciprofloxacin]",
    "Result": "Resistant"
  },
  {
    "molecule": "COc1cccc(OC)c1C(=O)N[C@@H]1C(=O)N2[C@@H]1SC(C)(C)[C@@H]2C(=O)O [Methicillin]",
    "Result": "Not resistant"
  },
  {
    "molecule": "CO/N=C(\\C(=O)N[C@@H]1C(=O)N2C(C(=O)O)=C(CSc3nc(=O)c(=O)[nH]n3C)CS[C@H]12)c1csc(N)n1 [Ceftriaxone]",
    "Result": "Resistant"
  }
]

Data provenance: patent US20250069697A1
